Quick reference: protein stability index of the listed items.
B1: DVL3 (parent)
chain: FCADNPSELPPPMERTGGIGDSRP

- Variants of: B1
- protocol: protein stability index of a GFP-peptide fusion (GPS, HEK-293T) (PSI 1-6); higher = more stable;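 further: lentivirally expressed fusions sorted by FACS into six bins by GFP to DsRed ratio, PSI derived from sequencing read proportions per bin multiplied by bin number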
- measurement-setup: c terminus: a fixed tail appended
Give the figure only, with no unit attached.

Look over these answered cases.
seq	protein stability index
FCADNPSELPPPMERTEGIGDSRP [G17E]	4.54
FCADNPSELPPPMERTGGILDSRP [G20L]	3.76
FCADNPSCLPPPMERTGGIGDSRP [E8C]	4.06
FCADNPSELPPPMARTGGIGDSRP [E14A]	4.24
FCADNPSELPPPMERTGGRGDSRP [I19R]	4.74
FCADNPSELPPPMERTGGDGDSRP [I19D]	4.94
FCADNPSELPPPIERTGGIGDSRP [M13I]	4.27
FCADNVSELPPPMERTGGIGDSRP [P6V]	4.27
FCAWNPSELPPPMERTGGIGDSRP [D4W]	2.06
FCADNPSELPPPHERTGGIGDSRP [M13H]	4.77

## Task Which protein stability index value is on record for FCADNPSELGPPMERTGGIGDSRP [P10G] ?
## Result 4.13

## Task Which protein stability index value is on record for FCADNPSELPPPMERTGGIFDSRP [G20F] ?
## Result 3.78

## Task Which protein stability index value is on record for FCADNPSELPPPMERTGGIGDWRP [S22W] ?
## Result 3.97

src = the supplement of paper PMC10567573
